The values you see were collected from paper PMC4620497.

- targetEntity: DMPK (Homo sapiens, UniProt Q09013)
- Sequence (Q09013 whole entry): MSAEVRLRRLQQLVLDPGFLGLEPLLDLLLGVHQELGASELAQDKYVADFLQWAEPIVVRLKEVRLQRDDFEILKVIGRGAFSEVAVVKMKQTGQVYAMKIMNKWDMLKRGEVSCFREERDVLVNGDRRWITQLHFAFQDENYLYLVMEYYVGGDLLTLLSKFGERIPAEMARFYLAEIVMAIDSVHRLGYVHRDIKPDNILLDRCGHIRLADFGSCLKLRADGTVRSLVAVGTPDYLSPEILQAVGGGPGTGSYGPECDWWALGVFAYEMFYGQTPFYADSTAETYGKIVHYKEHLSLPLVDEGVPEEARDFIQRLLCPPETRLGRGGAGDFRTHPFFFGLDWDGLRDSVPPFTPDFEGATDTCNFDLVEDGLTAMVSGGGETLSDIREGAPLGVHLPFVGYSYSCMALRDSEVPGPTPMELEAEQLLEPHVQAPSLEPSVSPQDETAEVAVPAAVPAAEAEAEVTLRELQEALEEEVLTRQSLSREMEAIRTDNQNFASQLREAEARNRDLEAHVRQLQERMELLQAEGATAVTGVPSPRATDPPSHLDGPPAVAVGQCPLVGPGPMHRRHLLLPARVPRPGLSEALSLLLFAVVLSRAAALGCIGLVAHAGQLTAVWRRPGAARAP
pKd: −log10 of the molar value.
endpointName: pKd

compound	result
CC(C)(C)c1cc(NC(=O)Nc2ccc(Oc3ncnc4[nH]ncc34)c(F)c2)no1 [SKLB-677]	< 5.00

###

- targetEntity: UniProt:P36897
- Sequence (P36897 34-503): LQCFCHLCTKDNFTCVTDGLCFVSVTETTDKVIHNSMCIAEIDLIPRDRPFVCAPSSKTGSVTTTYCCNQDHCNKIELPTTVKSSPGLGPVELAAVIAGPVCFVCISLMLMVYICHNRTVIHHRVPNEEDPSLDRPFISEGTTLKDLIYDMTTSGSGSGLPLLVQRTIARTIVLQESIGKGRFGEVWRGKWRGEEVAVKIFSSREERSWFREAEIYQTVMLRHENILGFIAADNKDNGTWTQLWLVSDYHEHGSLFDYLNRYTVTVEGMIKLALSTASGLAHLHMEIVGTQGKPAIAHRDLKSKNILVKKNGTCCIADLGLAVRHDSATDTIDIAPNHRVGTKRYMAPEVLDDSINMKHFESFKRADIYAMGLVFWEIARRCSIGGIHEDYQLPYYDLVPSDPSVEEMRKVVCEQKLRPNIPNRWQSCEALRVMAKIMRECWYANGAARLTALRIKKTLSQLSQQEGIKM
endpointName: Kd

compound	result
CC(C)(C)c1cc(NC(=O)Nc2ccc(Oc3ncnc4[nH]ncc34)c(F)c2)no1 [SKLB-677]	> 10 µM

###

- Test system: normal PBMCs
- protocolDetails: CellTiterGlo viability assay, normal PBMCs
- Assay type: cell-based, human
- studyConditions: sample #9, normal PBMCs; 72 h

lineNotation	IC50
CC(C)(C)c1cc(NC(=O)Nc2ccc(Oc3ncnc4[nH]ncc34)c(F)c2)no1	> 10 µM
